Each entry below lists one item and its recorded ΔTm at 100 µM value.
biological target: recombinant USP1 protein (Homo sapiens, UniProt O94782, DEL125-138/DEL229-408/DEL608-737); assay: Binding affinity to recombinant USP1 protein by differential scanning fluorimetry; settings: compound 100 µM; 0.03 mg/mL USP1 (Δ1-66, Δ125-138, Δ229-408, Δ608-737); Tm with compound minus Tm with DMSO; read-out: ΔTm (°C)
Sequence (O94782 with tags, fused parts or gaps DEL125-138/DEL229-408/DEL608-737): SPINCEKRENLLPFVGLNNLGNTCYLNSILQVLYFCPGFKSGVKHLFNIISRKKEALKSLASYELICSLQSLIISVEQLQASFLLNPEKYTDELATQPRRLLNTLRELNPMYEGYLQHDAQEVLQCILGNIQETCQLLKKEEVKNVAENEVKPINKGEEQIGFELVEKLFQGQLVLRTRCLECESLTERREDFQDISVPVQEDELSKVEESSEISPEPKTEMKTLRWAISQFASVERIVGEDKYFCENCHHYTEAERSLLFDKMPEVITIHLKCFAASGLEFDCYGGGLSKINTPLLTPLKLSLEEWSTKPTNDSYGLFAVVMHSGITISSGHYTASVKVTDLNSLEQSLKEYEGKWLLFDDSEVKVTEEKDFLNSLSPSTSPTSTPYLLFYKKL

{"columns": ["compound", "ΔTm at 100 µM"],
 "data": [
  ["COc1ncnc(C2CC2)c1-c1ncc2cc(C(=O)NC3CCC(N(C)C)CC3)n(Cc3ccc(-c4nc(C(F)(F)F)cn4C(C)C)cc3)c2n1 (stereo not drawn)", "> 5 °C"],
  ["COc1ncnc(C2CC2)c1-c1ncc2cc(C(=O)NCC3(C)COC3)n(Cc3ccc(-c4nc(C(F)(F)F)cn4C(C)C)cc3)c2n1", "> 5 °C"],
  ["COc1ncnc(C2CC2)c1-c1ncc2cc(C(=O)N[C@H](C)CCO)n(Cc3ccc(-c4nc(C(F)(F)F)cn4C(C)C)cc3)c2n1", "> 5 °C"]
]}

Record COc1ncnc(C2CC2)c1-c1ncc2cc(C(=O)NCCC3CC(F)(F)C3)n(Cc3ccc(-c4nc(C(F)(F)F)cn4C(C)C)cc3)c2n1 , field ΔTm at 100 µM: > 5 °C

Record COc1ncnc(C2CC2)c1-c1ncc2cc(C(=O)N[C@H]3CCN(C)C[C@H]3F)n(Cc3ccc(-c4nc(C(F)(F)F)cn4C)cc3)c2n1 , field ΔTm at 100 µM: > 5 °C

Record CNC(=O)c1cc2cnc(-c3c(Cl)cnn3C)nc2n1Cc1ccc(-c2nc(C(F)(F)F)cn2C)cc1 , field ΔTm at 100 µM: > 5 °C

Record COC(=O)CNC(=O)c1cc2cnc(-c3c(OC)ncnc3C3CC3)nc2n1Cc1ccc(-c2nc(C(F)(F)F)cn2C(C)C)cc1 , field ΔTm at 100 µM: > 5 °C

Record COc1ncnc(C2CC2)c1-c1ncc2cc(C(=O)N[C@@H]3CCN(C)C3)n(Cc3ccc(-c4nc(C(F)(F)F)cn4C(C)C)cc3)c2n1 , field ΔTm at 100 µM: > 5 °C

Record COc1ncnc(C2CC2)c1-c1ncc2cc(C(=O)N[C@H]3C[C@H](OC)C3)n(Cc3ccc(-c4nc(C(F)(F)F)cn4C(C)C)cc3)c2n1 , field ΔTm at 100 µM: > 5 °C

###

target: recombinant USP1 protein (Homo sapiens, UniProt O94782, DEL125-138/DEL229-408/DEL608-737); test: Binding affinity to recombinant USP1 protein by differential scanning fluorimetry; conditions: compound 100 µM; 0.03 mg/mL USP1 (Δ1-66, Δ125-138, Δ229-408, Δ608-737); Tm with compound minus Tm with DMSO; read-out: ΔTm (°C)
quantity_name: ΔTm at 100 µM

{"columns": ["molecule", "observed_measurement"],
 "data": [
  ["COc1ncnc(C2CC2)c1-c1ncc2cc(C(=O)N[C@@H](C)CO)n(Cc3ccc(-c4nc(C(F)(F)F)cn4C(C)C)cc3)c2n1 [Example 113]", "> 5 °C"],
  ["COc1ncnc(C2CC2)c1-c1ncc2cc(C(=O)NC3CCN(CC(C)(C)F)CC3)n(Cc3ccc(-c4nc(C(F)(F)F)cn4C(C)C)cc3)c2n1 [Example 126]", "> 5 °C"]
]}

Consider now this further molecule.
Measured ΔTm at 100 µM (recombinant USP1 protein (Homo sapiens, UniProt O94782, DEL125-138/DEL229-408/DEL608-737)), entry CCCNC(=O)c1cc2cnc(-c3c(OC)ncnc3C3CC3)nc2n1Cc1ccc(-c2nc(C(F)(F)F)cn2C(C)C)cc1 [Example 37] : > 5 °C
